Tested on: PC-3 prostate
Experiment: NCI-60 one-dose screen, 48 h (100 = growth as untreated, 0 = no growth, -100 = all killed)
Conditions: 10 µM unless noted
The panel holds about 83,000 compounds, 20% with a hit somewhere; the sample as a whole holds those more often. Calls of active or inactive are those of the source. How the source made its calls: active means growth percent below 10; inactive means the rest.
Kindly state growth for each of the entries shown.

Entry CN1CCN(C(=O)c2cc(-c3ccc4ncnc(N5CCc6cc(F)c(Cl)cc65)c4c3)cnc2N)CC1 , tested on PC-3 prostate, has a reported growth of 1.89% (active)

Entry COc1cc2c(cc1O)[C@@]1(C)[C@H](c3ccccc3Br)OC(=O)N1CC2 , tested on PC-3 prostate, has a reported growth of 71.3% (inactive)

Entry N=C(N)c1ccc(-c2ccc(-c3ccc(Cl)cc3)o2)o1 , tested on PC-3 prostate, has a reported growth of 43.9% (inactive)

Entry CN1CCN(c2ccc3c(c2)nc(NNC(=O)c2cnccn2)c2cccn23)CC1 , tested on PC-3 prostate, has a reported growth of 47.3% (inactive)

Entry CCCCCCCCNc1cc2c3c(c1)CCCN3CCC2 , tested on PC-3 prostate, has a reported growth of -0.993% (active)

Entry COc1ncc2cc1NS(=O)(=O)c1cccc(c1)C(=O)NCC1=CC=C(S1)c1ncnc3c1SC2=C3C , tested on PC-3 prostate, has a reported growth of -24.8% (active)

Entry CCCCCCNc1nc(NCCCCCC)c2[nH]c(NCCCCCC)nc2n1 , tested on PC-3 prostate, has a reported growth of 18.7% (inactive)

Entry CSCCC(NC(=O)c1ccccc1)C(=O)N/N=C1\S/C(=C/c2ccc(Cl)cc2)C(=O)N1C (stereo unspecified) , tested on PC-3 prostate, has a reported growth of 84.9% (inactive)

Entry O=C1Nc2ccccc2C2c3cccn3-c3ccccc3N12 (stereo unspecified) , tested on PC-3 prostate, has a reported growth of 66.9% (inactive)

Entry Cc1cc2nc3c4ccccc4n(CCN(C)C)c3nc2cc1C , tested on PC-3 prostate, has a reported growth of 12.9% (inactive)

Entry CCOC(=O)c1n[nH]n2c1nc(=O)c1cnn(C)c12 , tested on PC-3 prostate, has a reported growth of 97.7% (inactive)

Entry COc1ccc(OC)c(-c2cn3nc(-c4c[nH]c5ccc(Br)cc45)sc3n2)c1 , tested on PC-3 prostate, has a reported growth of 40.9% (inactive)

Entry Cc1nn(-c2ccccc2)c(/N=C/N(C)C)c1/C=C/C(=O)c1ccc(Cl)cc1 , tested on PC-3 prostate, has a reported growth of 85.9% (inactive)

Entry COc1ccc(-c2oc(=O)ccc2-c2cc(OC)c(OC)c(OC)c2)cc1O , tested on PC-3 prostate, has a reported growth of 38.1% (inactive)

Entry CCC/C(=N\NC(N)=O)C(OC)OC , tested on PC-3 prostate, has a reported growth of 97% (inactive)

Entry CC[C@]12C=CCN3CC[C@@]4(c5ccc(OC)cc5N(C)[C@H]4[C@@](O)(C(=O)OC)[C@@H]1OC(=O)CCCN1CCOCC1)[C@@H]32 , tested on PC-3 prostate, has a reported growth of 105% (inactive)

Entry Cn1c(O)c(C(/C=C/c2ccccc2)=Nc2ccccc2N)c(=O)n(C)c1=O , tested on PC-3 prostate, has a reported growth of 77.7% (inactive)

Entry CC(=O)N/C(=C1/OC(C(O)C(O)C(O)CO)CN1C)[P+](c1ccccc1)(c1ccccc1)c1ccccc1 (stereo unspecified) , tested on PC-3 prostate, has a reported growth of 98.2% (inactive)

Entry Nc1c(C(=O)Nc2cccc3ncccc23)sc2nc3c(cc12)C(=O)CCC3 , tested on PC-3 prostate, has a reported growth of 35.1% (inactive)

Entry COc1ccc(-c2cc(-c3cc(OC)c(OC)c(OC)c3)c(C#N)c(=O)n2CCCCCC(=O)NO)cc1 , tested on PC-3 prostate, has a reported growth of 89.4% (inactive)

Entry COc1ccc(/C=C/C(=O)c2ccc(NC(=O)CSc3nnc(-c4cc(-c5ccccc5)nc5ccccc45)n3-c3ccccc3)cc2)cc1 , tested on PC-3 prostate, has a reported growth of 89.9% (inactive)

Entry CN(Cc1cnc2nc(N)nc(N)c2n1)c1c(Cl)cc(C(=O)NC(CCC(=O)O)C(=O)O)cc1Cl (stereo unspecified) , tested on PC-3 prostate, has a reported growth of 22.5% (inactive)

Entry C[N+](C)(C/C=C/c1ccccc1)Cc1ccccc1 , tested on PC-3 prostate, has a reported growth of 97% (inactive)

Entry COC(=O)/C=C1/SC(=Nc2cccc(Cl)c2)N(CCc2c[nH]c3ccc(O)cc23)C1=O , tested on PC-3 prostate, has a reported growth of 9.39% (active)

Entry COc1cccc(/C=C/C(=O)c2cc3c(N)c(C(=O)Nc4cccc(Cl)c4C)sc3nc2C)c1 , tested on PC-3 prostate, has a reported growth of 13.9% (inactive)

Entry O=C(CN1C(=O)/C(=C/c2ccco2)SC1=S)NCCc1c[nH]c2ccc(F)cc12 , tested on PC-3 prostate, has a reported growth of 94% (inactive)

Entry CC1(C)CC[C@]2(C(=O)O)CC[C@]3(C)C(=CC[C@@H]4[C@@]5(C)C[C@@H](Cc6cn([C@@H]7O[C@H](CO)[C@@H](O)[C@H](O)[C@H]7O)nn6)[C@H](O)C(C)(C)[C@@H]5CC[C@]43C)[C@@H]2C1 , tested on PC-3 prostate, has a reported growth of 93.4% (inactive)

Entry Cc1ccc(N=Nc2c(N)nn(-c3ccccc3)c2N)cc1 , tested on PC-3 prostate, has a reported growth of 56.7% (inactive)

Entry Cc1ccc(/C=C/C(=O)c2ccc(NC(=O)CSc3nc4c([nH]3)c(=O)n(C)c(=O)n4C)cc2)c(C)c1 , tested on PC-3 prostate, has a reported growth of 49.3% (inactive)

Entry O=C(CSc1nc2ccc([N+](=O)[O-])cc2[nH]1)Nc1cccc([N+](=O)[O-])c1 , tested on PC-3 prostate, has a reported growth of 44.8% (inactive)

Entry C/C(=C(\c1ccc(OCCN2CCCCCC2)cc1)c1ccc(OC(=O)Cc2ccccc2)cc1)c1ccc(Cl)cc1 , tested on PC-3 prostate, has a reported growth of 41.9% (inactive)

Entry O=C(OC[C@@H]1CO1)c1cccc2c(=O)c3ccccc3[nH]c12 , tested on PC-3 prostate, has a reported growth of -21.1% (active)

Entry C=CCOC(=O)C1=C(C)NC(=O)NC1c1c(Cl)n(C)c2ccccc12 (stereo unspecified) , tested on PC-3 prostate, has a reported growth of 89.2% (inactive)

Entry Cn1cc(-c2nc(-c3c[nH]c4ccncc34)cs2)c2cc(Br)ccc21 , tested on PC-3 prostate, has a reported growth of -86.4% (active)

Entry CS(=O)(=O)Cc1cnc(C2OCCO2)s1 , tested on PC-3 prostate, has a reported growth of 92.2% (inactive)

Entry C#CC#CC#CC#CC#CC#CC#CC#CC[C@H]1OC[C@H](COC(=O)O[C@@H](C(=O)O[C@H]2C[C@@]3(O)[C@@H](OC(=O)c4ccccc4)[C@@H]4[C@]5(OC(C)=O)CO[C@@H]5C[C@H](O)[C@@]4(C)C(=O)[C@H](OC(C)=O)C(=C2C)C3(C)C)[C@@H](NC(=O)c2ccccc2)c2ccccc2)O1 , tested on PC-3 prostate, has a reported growth of 32.7% (inactive)

Reference source for all entries: PubChem BioAssay (NCI)
